In this section we review reported T/C values for a set of compounds.
System: nude mice, LX-1 lung xenograft intrarenal, tumor weight T/C
Assay remarks: NCI In Vivo Anticancer Drug Screen. Data for tumor model Human Lung LX-1 Xenograft (intrarenal inoculation) in NU/NU Swiss (nude) mice
Assay context: endpoint: mean tumor weight change; dose: 18.0 mg/kg/injection; schedule: Q04DX003 (sc); vehicle: saline with Tween-80; higher = larger tumour
Results filed as inconclusive are left out.

{"Compound": "O=C1c2cccc3cc([N+](=O)[O-])cc(c23)C(=O)N1CCN1CCCC1", "Measured on": "nude mice, LX-1 lung xenograft intrarenal, tumor weight T/C", "T/C": "75 % of control"}
{"Compound": "C1CCC2C[N-]CCC2C1.C1CCC2C[N-]CCC2C1.C1CCC2C[N-]CCC2C1.C1CCC2C[N-]CCC2C1.[Cl][Rh][Cl] (stereo not given)", "Measured on": "nude mice, LX-1 lung xenograft intrarenal, tumor weight T/C", "T/C": "63 % of control"}
{"Compound": "CN(C)CCN1C(=O)c2cccc3cc([N+](=O)[O-])cc(c23)C1=O", "Measured on": "nude mice, LX-1 lung xenograft intrarenal, tumor weight T/C", "T/C": "108 % of control"}
{"Compound": "C[CH2][Pb]([CH2]C)([CH2]C)[O]C(=O)COc1ccccc1", "Measured on": "nude mice, LX-1 lung xenograft intrarenal, tumor weight T/C", "T/C": "47 % of control"}
{"Compound": "CCCCCCCCSC1=C(Cl)C(=O)C(OC)=C(OC)C1=O", "Measured on": "nude mice, LX-1 lung xenograft intrarenal, tumor weight T/C", "T/C": "82 % of control"}

====

Here the recorded T/C is given for each entry.
Tested on: nude mice, LX-1 lung xenograft intrarenal, tumor weight T/C
Assay remarks: NCI In Vivo Anticancer Drug Screen. Data for tumor model Human Lung LX-1 Xenograft (intrarenal inoculation) in NU/NU Swiss (nude) mice
Assay context: endpoint: mean tumor weight change; dose: 100.0 mg/kg/injection; schedule: Q01DX010 (sc); vehicle: Klucel (hydroxypropylcellulose) (HPC); higher = larger tumour
Inconclusive results are not listed.

{"Compound": "Cn1cnc([N+](=O)[O-])c1S(=O)(=O)NCN1CCOCC1", "Measured on": "nude mice, LX-1 lung xenograft intrarenal, tumor weight T/C", "T/C": "43 % of control"}
{"Compound": "CN(C)/N=N/c1nc[nH]c1C(N)=O", "Measured on": "nude mice, LX-1 lung xenograft intrarenal, tumor weight T/C", "T/C": "-84 % of control"}
{"Compound": "CCCC(=O)OCc1cc(=O)n(C)c2c3c4c(cc12)c(C)cc(=O)n4CO3", "Measured on": "nude mice, LX-1 lung xenograft intrarenal, tumor weight T/C", "T/C": "48 % of control"}
{"Compound": "Cc1ccc(C(=O)[O][Hg][CH2]C2COC([CH2][Hg][O]C(=O)c3ccc(C)cc3)CO2)cc1 (stereo not given)", "Measured on": "nude mice, LX-1 lung xenograft intrarenal, tumor weight T/C", "T/C": "112 % of control"}
{"Compound": "C=CCNc1ccc(C)cc1", "Measured on": "nude mice, LX-1 lung xenograft intrarenal, tumor weight T/C", "T/C": "107 % of control"}
{"Compound": "Cc1ccc2c(ccc(CC(=S)[S-])[n+]2C)c1", "Measured on": "nude mice, LX-1 lung xenograft intrarenal, tumor weight T/C", "T/C": "99 % of control"}
{"Compound": "C/C(=C\\c1ccccc1)[N+](=O)[O-]", "Measured on": "nude mice, LX-1 lung xenograft intrarenal, tumor weight T/C", "T/C": "159 % of control"}
{"Compound": "CC1CN=C(c2ccc(NC(=O)c3ccc(C(=O)Nc4ccc(C5=NCC(C)N5)cc4)cc3)cc2)N1 (stereo not given)", "Measured on": "nude mice, LX-1 lung xenograft intrarenal, tumor weight T/C", "T/C": "68 % of control"}
{"Compound": "C[C@]12CCC(=O)C(O)=C1CC[C@@H]1[C@@H]2CC[C@]2(C)C(=O)CC[C@@H]12", "Measured on": "nude mice, LX-1 lung xenograft intrarenal, tumor weight T/C", "T/C": "30 % of control"}
{"Compound": "CC(=O)OCC1OC(OC2=C(CC=C(C)C)C(=O)c3ccccc3C2=O)C(OC(C)=O)C(OC(C)=O)C1OC(C)=O (stereo not given)", "Measured on": "nude mice, LX-1 lung xenograft intrarenal, tumor weight T/C", "T/C": "83 % of control"}
